assay: Selectivity index, ratio of IC50 for human HeLa cells to IC50 for Trypanosoma cruzi Tulahuen 2 epimastigotes; type: toxicity, cell-based; details: HeLa cells versus Trypanosoma cruzi Tulahuen 2 epimastigotes, read-out: Ratio IC50
selectivity ratio listing for selected molecules.
// no unit string in output, number only

Example molecules with recorded selectivity ratio:
[[record]]
molecule = "CC1CS(=O)(=O)CCN1/N=C/c1ccc([N+](=O)[O-])o1 (stereo unspecified)"
observed_value = 1.5

[[record]]
molecule = "O=c1c2ccccc2c(C(=S)Nc2ccccc2)c2[nH]c3ccccc3n12"
observed_value = 15


Now turn to the next molecule.
q: Consider the molecule COc1ccc(NC(=S)c2c3n(c(=O)c4ccccc24)CCN3)cc1 and give its measured selectivity ratio.
a: 1.7

* * *

tested on: L6; assay: Cytotoxicity against rat L6 cells; format: cell-based
Attribute: IC50

Solved entries (count: 4):
[[record]]
sample_smiles = "O=C(Nc1ccccc1)c1c2n(c(=O)c3ccccc13)CCN2"
experimental_system = "L6"
measurement_type = "IC50"
observed_value = "> 19.6 µg/mL"

[[record]]
sample_smiles = "O=c1c2ccccc2c(C(=S)Nc2ccccc2)c2[nH]c3ccccc3n12"
experimental_system = "L6"
measurement_type = "IC50"
observed_value = "> 22.8 µg/mL"

[[record]]
sample_smiles = "CC/C(=C(\\c1ccccc1)c1ccc(OCCN(C)C)cc1)c1ccccc1"
experimental_system = "L6"
measurement_type = "IC50"
observed_value = "4.9 µg/mL"

[[record]]
sample_smiles = "O=c1c2ccccc2c(C(=S)Nc2ccc(Cl)cc2)c2n1CCN2"
experimental_system = "L6"
measurement_type = "IC50"
observed_value = "> 22.8 µg/mL"


q: Param item = O=c1c2ccccc2cc2n1CCN2 ; retrieve measured IC50.
a: > 100 µg/mL

* * *

assay: Selectivity index, ratio of IC50 for human HeLa cells to IC50 for Trypanosoma cruzi Tulahuen 2 epimastigotes; format: toxicity, cell-based; details: HeLa cells versus Trypanosoma cruzi Tulahuen 2 epimastigotes, read-out: Ratio IC50
Measurement Type: selectivity ratio

[[record]]
sample_smiles = "O=c1c2ccccc2c(C(=S)Nc2ccccc2)c2n1CCN2"
observed_value = "> 33"

[[record]]
sample_smiles = "O=c1c2ccccc2c(C(=S)Nc2ccc(Cl)cc2)c2n1CCN2"
observed_value = "> 180"


q: What value of selectivity ratio has been recorded for this entry: Cc1ccc(NC(=S)c2c3n(c(=O)c4ccccc24)CCN3)cc1
a: > 100
